# Tested on: velvetleaf (Abutilon theophrasti, ABUTH)
# assay-method-text: Pre-emerge test, greenhouse herbicide activity screening
# Assay type: in vivo
# conditions: pre-emerge, 63 g ai/ha, 14 days after application, rating scale 0-100
readout-kind: phytotoxicity rating ABUTH
# respond with the number and nothing more

Can you look up the measured phytotoxicity rating ABUTH of COc1c(Cl)cc(F)c(-n2c(=O)cc(C(F)(F)F)n(C)c2=O)c1NNC(=O)C1CC1 for me? 100

Can you look up the measured phytotoxicity rating ABUTH of CCOC(=O)CC(C)=NNc1c(OC)c(Cl)cc(F)c1-n1c(=O)cc(C(F)(F)F)n(C)c1=O for me? 100

Can you look up the measured phytotoxicity rating ABUTH of CCOC(=O)N(C)C(=O)NNc1c(OC)c(Cl)cc(F)c1-n1c(=O)cc(C(F)(F)F)n(C)c1=O for me? 100

Can you look up the measured phytotoxicity rating ABUTH of COc1c(Cl)cc(F)c(-n2c(=O)cc(C(F)(F)F)n(C)c2=O)c1NNC(=O)c1ccccc1 for me? 100

Can you look up the measured phytotoxicity rating ABUTH of Cn1c(C(F)(F)F)cc(=O)n(-c2ccc(Cl)cc2C(=O)c2ccccc2)c1=O for me? 0

Can you look up the measured phytotoxicity rating ABUTH of CCOC(=O)C(Cl)Cc1c(OC)c(Cl)cc(F)c1-c1nn(C)c(C(F)(F)F)c1Cl (centres unmarked) for me? 30

Can you look up the measured phytotoxicity rating ABUTH of COc1c(Cl)cc(F)c(-n2c(=O)cc(C(F)(F)F)n(C)c2=O)c1CC(C)(Cl)C(=O)OCCSC (centres unmarked) for me? 90

Can you look up the measured phytotoxicity rating ABUTH of COc1c(Cl)cc(F)c(-n2c(=O)cc(C(F)(F)F)n(C)c2=O)c1SCCO for me? 60
